# System: human Factor 7 mRNA
# test-protocol: Dose-dependent antisense inhibition of human Factor 7 in HepB3 cells, electroporation
# Type: cell-based
# particulars: 100 μM, approx. 16 hours (Table 15, Example 7)
Strand notation (5' to 3'): a small letter for the sugar, then the base; units joined by * are phosphorothioate-linked, units joined directly phosphodiester-linked; [ ] holds rarer units or linkages, { } end groups; capitals alone tell only the bases. e = 2'-O-(2-methoxyethyl) (MOE); [5mC] = 5-methylcytosine; d = 2'-deoxy (DNA)
readout-type: percent inhibition of Factor 7 mRNA, relative to untreated control cells (%)

# substance, output-unit, numeric-readout
rows = [
    ("422152 (antisense eA*eT*eG*d[5mC]*dA*dT*dG*dG*dT*dG*dA*dT*dG*d[5mC]*dT*dT*d[5mC]*eT*eG*eA) [compound 422152]", "%", 76),
    ("422215 (antisense eG*eT*eT*d[5mC]*dT*dG*d[5mC]*dA*dG*dG*dA*dG*d[5mC]*dG*dG*d[5mC]*d[5mC]*eT*eA*eA) [compound 422215]", "%", 84),
    ("422183 (antisense eG*e[5mC]*eG*d[5mC]*d[5mC]*dA*d[5mC]*d[5mC]*d[5mC]*dG*d[5mC]*d[5mC]*dG*dG*d[5mC]*dT*d[5mC]*eT*eG*e[5mC]) [compound 422183]", "%", 71),
    ("422295 (antisense e[5mC]*eG*dA*dG*dT*dT*d[5mC]*dT*dG*d[5mC]*dA*dG*dG*dA*dG*e[5mC]*eG*eG*e[5mC]*e[5mC]) [compound 422295]", "%", 80),
    ("422096 (antisense eA*eG*eA*e[5mC]*eA*dA*dT*dG*dG*dT*d[5mC]*dA*dG*dG*dG*e[5mC]*eT*eG*eG*eT) [compound 422096]", "%", 85),
    ("422142 (antisense eG*eA*eG*eT*eT*d[5mC]*dT*dG*d[5mC]*dA*dG*dG*dA*dG*d[5mC]*eG*eG*e[5mC]*e[5mC]*eT) [compound 422142]", "%", 78),
    ("422177 (antisense e[5mC]*e[5mC]*e[5mC]*dG*d[5mC]*d[5mC]*dG*dG*d[5mC]*dT*d[5mC]*dT*dG*d[5mC]*dT*d[5mC]*dA*eT*e[5mC]*e[5mC]) [compound 422177]", "%", 63),
    ("422292 (antisense eG*eT*dT*d[5mC]*dT*dG*d[5mC]*dA*dG*dG*dA*dG*d[5mC]*dG*dG*e[5mC]*e[5mC]*eT*eA*eA) [compound 422292]", "%", 86),
    ("422150 (antisense eG*e[5mC]*eA*dT*dG*dG*dT*dG*dA*dT*dG*d[5mC]*dT*dT*d[5mC]*dT*dG*eA*eA*eT) [compound 422150]", "%", 83),
]

* * *

# System: human Factor 7 mRNA
# test-protocol: Dose-dependent antisense inhibition of human Factor 7 in HepB3 cells, electroporation
# Assay type: cell-based
# particulars: 3.125 μM, approx. 16 hours (Table 15, Example 7)
# Procedure: The gapmers were also transfected via electroporation and their dose-dependent inhibition of human Factor 7 mRNA was measured. […] After a treatment period of approximately 16 hours, RNA was isolated from the cells and Factor 7 mRNA levels were measured by quantitative real-time PCR. […] Factor 7 mRNA levels were adjusted according to total RNA content, as measured by RIBOGREEN®. […]
Strand notation (5' to 3'): a small letter for the sugar, then the base; units joined by * are phosphorothioate-linked, units joined directly phosphodiester-linked; [ ] holds rarer units or linkages, { } end groups; capitals alone tell only the bases. e = 2'-O-(2-methoxyethyl) (MOE); [5mC] = 5-methylcytosine; d = 2'-deoxy (DNA)
readout-type: percent inhibition of Factor 7 mRNA, relative to untreated control cells (%)

# substance, numeric-readout
rows = [
    ("422150 (antisense eG*e[5mC]*eA*dT*dG*dG*dT*dG*dA*dT*dG*d[5mC]*dT*dT*d[5mC]*dT*dG*eA*eA*eT) [compound 422150]", 17),
    ("422215 (antisense eG*eT*eT*d[5mC]*dT*dG*d[5mC]*dA*dG*dG*dA*dG*d[5mC]*dG*dG*d[5mC]*d[5mC]*eT*eA*eA) [compound 422215]", 11),
    ("422086 (antisense eT*eG*e[5mC]*eA*eT*dG*dG*dT*dG*dA*dT*dG*d[5mC]*dT*dT*e[5mC]*eT*eG*eA*eA) [compound 422086]", 20),
    ("422142 (antisense eG*eA*eG*eT*eT*d[5mC]*dT*dG*d[5mC]*dA*dG*dG*dA*dG*d[5mC]*eG*eG*e[5mC]*e[5mC]*eT) [compound 422142]", 26),
    ("422183 (antisense eG*e[5mC]*eG*d[5mC]*d[5mC]*dA*d[5mC]*d[5mC]*d[5mC]*dG*d[5mC]*d[5mC]*dG*dG*d[5mC]*dT*d[5mC]*eT*eG*e[5mC]) [compound 422183]", 16),
    ("407939 (antisense eT*eG*e[5mC]*eA*eG*d[5mC]*d[5mC]*d[5mC]*dG*dG*d[5mC]*dA*d[5mC]*d[5mC]*d[5mC]*eA*eG*e[5mC]*eG*eA) [compound 407939]", 18),
    ("422229 (antisense eA*eT*dG*d[5mC]*dA*dT*dG*dG*dT*dG*dA*dT*dG*d[5mC]*dT*eT*e[5mC]*eT*eG*eA) [compound 422229]", 21),
    ("422087 (antisense e[5mC]*eA*eT*eG*e[5mC]*dA*dT*dG*dG*dT*dG*dA*dT*dG*d[5mC]*eT*eT*e[5mC]*eT*eG) [compound 422087]", 22),
    ("422228 (antisense eT*eG*d[5mC]*dA*dT*dG*dG*dT*dG*dA*dT*dG*d[5mC]*dT*dT*e[5mC]*eT*eG*eA*eA) [compound 422228]", 18),
    ("422152 (antisense eA*eT*eG*d[5mC]*dA*dT*dG*dG*dT*dG*dA*dT*dG*d[5mC]*dT*dT*d[5mC]*eT*eG*eA) [compound 422152]", 14),
    ("422140 (antisense eG*eT*eT*e[5mC]*eT*dG*d[5mC]*dA*dG*dG*dA*dG*d[5mC]*dG*dG*e[5mC]*e[5mC]*eT*eA*eA) [compound 422140]", 29),
]
